These data points were gathered from paper PMC9518283.

Here, each record is paired with measured Papp at 100 µM data.
assay: in vitro; details: PAMPA, pH 7.4
property label: Papp at 100 µM (nm/s)

1. C=CCNc1c2c(nc3ccc(Oc4ccccc4)cc13)CCCC2.Cl: 42.2
2. C#CCNc1c2c(nc3ccc(Oc4ccccc4)cc13)CCCC2.Cl: 104
3. C#CCNCCCNc1c2c(nc3ccccc13)CCCC2.Cl.Cl: 60.7
4. C#CCN(CC#C)CCCNc1c2c(nc3ccccc13)CCCC2.Cl.Cl: 122
5. Nc1c2c(nc3cc(Cl)ccc13)CCCC2 [6-Chlorotacrine, 6-chlorotacrine, reference compound]: 110

----------
Here, each record is paired with measured % of MAO-A activity (10 µM) data.
Molecular target: hMAO-A (Homo sapiens, UniProt P21397)
Construct: purchased Sigma-Aldrich (St. Louis, MO, USA)
Assay: hMAO-A inhibition, kynuramine substrate, HPLC-MS
Type: biochemical
Conditions: residual enzyme activity, compound at 10 µM
Description: The hMAO-A and hMAO-B enzymes were purchased from Sigma-Aldrich (St. Louis, MO, USA). […] The mixture was pre-incubated at 37 °C for 5 min and subsequently substrate kynuramine was added to the final concentration of 60 µM in the case of hMAO-A and 30 µM in the case of hMAO-B. The final volume of reaction mixture was 0.1 mL. The whole reaction mixture was incubated at 37 °C for 30 min. […]
property label: % of MAO-A activity (10 µM) (%)

1) C#CCN(CC#C)c1c2c(nc3ccccc13)CCCC2.Cl [Compound 8]: 111
2) C#CCNc1c2c(nc3ccc(Oc4ccccc4)cc13)CCCC2.Cl [Compound 15]: 51
3) COc1ccc2nc3c(c(N)c2c1)CCCC3 [Compound 7-MEOTA, 7-methoxytacrine, reference compound]: 42
4) C#CCN(CC#C)CCCNc1c2c(nc3ccccc13)CCCC2.Cl.Cl [Compound 20]: 33
5) C=CCNc1ccnc2cc(Cl)ccc12.Cl [Compound 27]: 19
6) C#CCN(CC#C)c1c2c(nc3ccc(OC)cc13)CCCC2.Cl [Compound 12]: 114
7) C#CCN(CC#C)CCCNc1c2c(nc3ccc(OC)cc13)CCCC2.Cl.Cl [Compound 24]: 70
8) C=CCNc1c2c(nc3cc(Cl)ccc13)CCCC2.Cl [Compound 3]: 73
9) C=CCNc1c2c(nc3ccccc13)CCCC2.Cl [Compound 2]: 58
10) Nc1c2c(nc3cc(Cl)ccc13)CCCC2 [6-Chlorotacrine, 6-chlorotacrine, reference compound]: 48
11) C#CCNCCCNc1c2c(nc3ccccc13)CCCC2.Cl.Cl [Compound 21]: 54
12) C#CCN(CC#C)c1c2c(nc3ccc(Oc4ccccc4)cc13)CCCC2.Cl [Compound 14]: 47
13) C=CCN(CC=C)c1c2c(nc3ccc(Oc4ccccc4)cc13)CCCC2.Cl [Compound 6]: 78
14) C=CCN(CC=C)c1c2c(nc3ccccc13)CCCC2.Cl [Compound 1]: 85
15) C=CCN(CC=C)c1c2c(nc3ccc(OC)cc13)CCCC2.Cl [Compound 4]: 107
16) C#CCNc1c2c(nc3ccc(OC)cc13)CCCC2.Cl [Compound 13]: 82
17) C=CCNc1c2c(nc3ccc(Oc4ccccc4)cc13)CCCC2.Cl [Compound 7]: 90
18) C#CCNc1ccnc2cc(Cl)ccc12.Cl [Compound 28]: 31
19) C=CCNc1c2c(nc3ccc(OC)cc13)CCCC2.Cl [Compound 5]: 62

----------
assay: in vitro; settings: PAMPA, pH 7.4
property label: Papp (×10⁻⁶ cm/s)

1) COc1ccc2nc3c(c(N)c2c1)CCCC3 [Compound 7-MEOTA, 7-methoxytacrine, reference compound]: 17

----------
biological target: hMAO-A (Homo sapiens, UniProt P21397); construct: purchased Sigma-Aldrich (St. Louis, MO, USA); experiment: hMAO-A inhibition, kynuramine substrate, HPLC-MS; format: biochemical; settings: residual enzyme activity, compound at 1 µM
property label: % of MAO-A activity (1 µM) (%)

1. C#CCN(CC#C)CCCNc1c2c(nc3cc(Cl)ccc13)CCCC2.Cl.Cl: 107
2. C=CCN(CC=C)c1c2c(nc3ccc(OC)cc13)CCCC2.Cl: 103
3. C=CCN(CC=C)c1c2c(nc3ccc(Oc4ccccc4)cc13)CCCC2.Cl: 76
4. Nc1c2c(nc3cc(Cl)ccc13)CCCC2 [6-Chlorotacrine, 6-chlorotacrine, reference compound]: 61
5. C=CCNc1c2c(nc3ccc(Oc4ccccc4)cc13)CCCC2.Cl: 99
6. C#CCN(CC#C)c1c2c(nc3ccc(Oc4ccccc4)cc13)CCCC2.Cl: 93
7. C=CCNc1ccnc2cc(Cl)ccc12.Cl: 54
8. C#CCNc1c2c(nc3ccc(OC)cc13)CCCC2.Cl: 96
9. C#CCN(CC#C)c1c2c(nc3cc(Cl)ccc13)CCCC2: 92

----------
Target: hMAO-B (Homo sapiens, UniProt P27338)
Sequence (P27338 1-520): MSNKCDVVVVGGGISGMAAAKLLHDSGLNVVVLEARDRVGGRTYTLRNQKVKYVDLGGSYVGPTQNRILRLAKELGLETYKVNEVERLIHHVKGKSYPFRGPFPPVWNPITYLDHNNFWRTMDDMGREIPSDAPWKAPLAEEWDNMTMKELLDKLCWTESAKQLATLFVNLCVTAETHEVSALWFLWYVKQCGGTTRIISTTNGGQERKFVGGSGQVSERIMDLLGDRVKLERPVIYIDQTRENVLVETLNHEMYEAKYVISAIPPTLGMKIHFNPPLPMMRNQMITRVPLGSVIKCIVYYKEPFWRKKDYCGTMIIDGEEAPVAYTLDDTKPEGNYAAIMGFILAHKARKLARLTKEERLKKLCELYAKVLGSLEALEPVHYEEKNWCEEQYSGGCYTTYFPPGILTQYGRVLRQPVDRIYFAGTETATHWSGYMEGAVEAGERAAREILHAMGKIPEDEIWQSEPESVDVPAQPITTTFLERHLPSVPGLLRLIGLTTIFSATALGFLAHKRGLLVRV
property label: IC50 (nM)

1. C=CCNc1c2c(nc3ccc(Oc4ccccc4)cc13)CCCC2.Cl: 163

----------
target: hMAO-B (Homo sapiens, UniProt P27338); construct: purchased Sigma-Aldrich (St. Louis, MO, USA); assay: biochemical; conditions: residual enzyme activity, compound at 1 µM
Binary call on % of MAO-B activity (1 µM): true from 80% upward, false beneath that.

1. C#CCN(CC#C)CCCNc1c2c(nc3cc(Cl)ccc13)CCCC2.Cl.Cl: true
2. C=CCN(CC=C)c1c2c(nc3ccccc13)CCCC2.Cl: true
3. C#CCN(CC#C)c1c2c(nc3ccccc13)CCCC2.Cl: false
4. C#CCNc1c2c(nc3ccccc13)CCCC2: true
5. C#CCN(CC#C)c1c2c(nc3cc(Cl)ccc13)CCCC2: true
6. C#CCN(CC#C)c1c2c(nc3ccc(OC)cc13)CCCC2.Cl: false
7. C#CCNc1ccnc2cc(Cl)ccc12.Cl: true
8. C=CCNc1c2c(nc3ccc(Oc4ccccc4)cc13)CCCC2.Cl: false
9. C#CCN(CC#C)c1c2c(nc3ccc(Oc4ccccc4)cc13)CCCC2.Cl: false
10. C=CCNc1ccnc2cc(Cl)ccc12.Cl: true

----------
Target: hMAO-A (Homo sapiens)
Construct: purchased Sigma-Aldrich (St. Louis, MO, USA)
Sequence (P21397 1-527): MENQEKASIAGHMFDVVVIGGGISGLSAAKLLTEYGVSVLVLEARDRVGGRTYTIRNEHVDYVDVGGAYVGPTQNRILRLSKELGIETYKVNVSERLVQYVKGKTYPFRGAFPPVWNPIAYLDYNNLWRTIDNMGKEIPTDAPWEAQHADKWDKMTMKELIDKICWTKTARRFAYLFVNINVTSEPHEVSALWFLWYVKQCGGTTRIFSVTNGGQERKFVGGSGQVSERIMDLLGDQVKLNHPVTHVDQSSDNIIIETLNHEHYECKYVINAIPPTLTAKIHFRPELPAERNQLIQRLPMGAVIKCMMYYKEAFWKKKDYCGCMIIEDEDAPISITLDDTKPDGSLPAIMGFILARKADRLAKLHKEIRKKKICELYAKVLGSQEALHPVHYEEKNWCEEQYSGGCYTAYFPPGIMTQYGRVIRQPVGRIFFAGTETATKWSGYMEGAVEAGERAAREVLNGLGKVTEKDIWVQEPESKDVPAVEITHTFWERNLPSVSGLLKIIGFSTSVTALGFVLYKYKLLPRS
Test: hMAO-A inhibition, kynuramine substrate, HPLC-MS
Format: biochemical
Settings: residual enzyme activity, compound at 10 µM
property label: % of MAO-A activity (10 µM) (%)

1) C#CCN(CC#C)CCCNc1c2c(nc3cc(Cl)ccc13)CCCC2.Cl.Cl: 102
2) C#CCNCCCNc1c2c(nc3ccc(Oc4ccccc4)cc13)CCCC2.Cl.Cl: 79
3) C#CCNc1c2c(nc3ccccc13)CCCC2: 56
4) C#CCN(CC#C)c1c2c(nc3cc(Cl)ccc13)CCCC2: 92
